Test system: PPARg:RXRa 30nM:10nM, anti-RXR (NR concentration 30 nM, RXRa partner concentration 10 nM)
Experiment: PBM binding z-score (relative to random genomic background probes); higher = stronger binding; sequences stand for … in GC…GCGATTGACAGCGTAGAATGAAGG
# key: entry, value: PBM binding z-score

{"primary_sequence": "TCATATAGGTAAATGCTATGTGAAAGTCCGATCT", "PBM binding z-score": 3.62}
{"primary_sequence": "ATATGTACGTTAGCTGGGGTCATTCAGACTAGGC", "PBM binding z-score": 0.566}
{"primary_sequence": "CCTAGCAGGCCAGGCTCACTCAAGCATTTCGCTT", "PBM binding z-score": -1.13}
{"primary_sequence": "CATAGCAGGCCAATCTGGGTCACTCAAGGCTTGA", "PBM binding z-score": 0.652}
{"primary_sequence": "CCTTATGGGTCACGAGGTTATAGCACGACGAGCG", "PBM binding z-score": 4.18}
{"primary_sequence": "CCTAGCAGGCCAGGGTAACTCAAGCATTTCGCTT", "PBM binding z-score": -1.01}
{"primary_sequence": "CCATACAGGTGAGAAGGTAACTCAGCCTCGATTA", "PBM binding z-score": 0.288}
{"primary_sequence": "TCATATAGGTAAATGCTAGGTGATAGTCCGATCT", "PBM binding z-score": 3.56}
{"primary_sequence": "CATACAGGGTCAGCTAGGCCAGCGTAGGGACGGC", "PBM binding z-score": 0.559}
{"primary_sequence": "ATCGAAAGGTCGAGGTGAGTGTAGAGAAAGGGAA", "PBM binding z-score": 1.42}
{"primary_sequence": "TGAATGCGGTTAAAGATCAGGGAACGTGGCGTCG", "PBM binding z-score": 1.66}
{"primary_sequence": "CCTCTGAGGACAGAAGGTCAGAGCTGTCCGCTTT", "PBM binding z-score": -0.534}
{"primary_sequence": "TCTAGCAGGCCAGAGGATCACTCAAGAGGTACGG", "PBM binding z-score": 1.53}
{"primary_sequence": "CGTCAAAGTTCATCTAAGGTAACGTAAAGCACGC", "PBM binding z-score": 2.69}
{"primary_sequence": "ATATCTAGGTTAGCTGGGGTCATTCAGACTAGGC", "PBM binding z-score": 2.61}
{"primary_sequence": "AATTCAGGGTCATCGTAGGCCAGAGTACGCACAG", "PBM binding z-score": 3.49}
{"primary_sequence": "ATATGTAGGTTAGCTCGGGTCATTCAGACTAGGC", "PBM binding z-score": 1.34}
{"primary_sequence": "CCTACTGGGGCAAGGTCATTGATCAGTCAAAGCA", "PBM binding z-score": 2.53}
{"primary_sequence": "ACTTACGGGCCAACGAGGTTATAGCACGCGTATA", "PBM binding z-score": 0.0261}
{"primary_sequence": "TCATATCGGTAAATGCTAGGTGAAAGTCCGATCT", "PBM binding z-score": 3.69}
{"primary_sequence": "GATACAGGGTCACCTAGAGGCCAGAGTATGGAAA", "PBM binding z-score": 2.71}
{"primary_sequence": "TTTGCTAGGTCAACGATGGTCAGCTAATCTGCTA", "PBM binding z-score": 1.38}
{"primary_sequence": "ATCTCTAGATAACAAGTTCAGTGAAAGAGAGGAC", "PBM binding z-score": 0.363}
{"primary_sequence": "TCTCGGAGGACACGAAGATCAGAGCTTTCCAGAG", "PBM binding z-score": 2.25}
{"primary_sequence": "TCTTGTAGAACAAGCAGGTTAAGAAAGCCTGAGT", "PBM binding z-score": 2.58}
{"primary_sequence": "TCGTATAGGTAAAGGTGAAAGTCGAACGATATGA", "PBM binding z-score": 3.45}

Values compiled from the supplement of paper PMC6555819.
